Molecular target: glucocorticoid receptor (Homo sapiens)
Construct: endogenous in cells
Sequence (P04150 1-777): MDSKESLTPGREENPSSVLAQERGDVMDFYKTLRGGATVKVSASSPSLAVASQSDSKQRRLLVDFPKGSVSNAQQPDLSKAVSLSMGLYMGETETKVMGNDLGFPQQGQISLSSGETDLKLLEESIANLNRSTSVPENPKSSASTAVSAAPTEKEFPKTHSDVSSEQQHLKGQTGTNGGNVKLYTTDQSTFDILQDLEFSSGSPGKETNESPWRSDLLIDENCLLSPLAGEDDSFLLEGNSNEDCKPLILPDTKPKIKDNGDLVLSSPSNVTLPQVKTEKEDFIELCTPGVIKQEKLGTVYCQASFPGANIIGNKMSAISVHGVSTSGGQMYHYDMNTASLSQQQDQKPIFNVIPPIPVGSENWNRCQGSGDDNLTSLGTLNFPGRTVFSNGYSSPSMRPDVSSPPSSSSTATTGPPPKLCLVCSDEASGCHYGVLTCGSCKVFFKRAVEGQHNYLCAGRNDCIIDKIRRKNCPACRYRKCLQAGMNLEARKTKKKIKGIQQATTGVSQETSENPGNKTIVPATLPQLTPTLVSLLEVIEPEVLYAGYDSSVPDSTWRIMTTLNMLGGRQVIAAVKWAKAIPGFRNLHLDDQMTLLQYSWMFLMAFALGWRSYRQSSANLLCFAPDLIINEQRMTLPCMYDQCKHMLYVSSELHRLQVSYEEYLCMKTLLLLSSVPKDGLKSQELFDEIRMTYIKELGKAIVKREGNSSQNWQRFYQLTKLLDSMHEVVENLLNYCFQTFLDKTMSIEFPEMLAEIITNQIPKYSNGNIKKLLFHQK
Test: Ligand binding assay (GR BIND)
Value type: pKi
Keep in mind that pKi stands for -log10 of concentration in molar terms.

Answered examples (4):
Report pKi for `C[C@]12Cc3cnn(-c4ccc(F)cc4)c3C=C1CC[C@@H]2CN(CCO)S(=O)(=O)c1cc(C(F)(F)F)ccc1Cl` please.
7.86

Next up: `Cn1cc(S(=O)(=O)N(CCO)C[C@H]2CCC3=Cc4c(cnn4-c4ccc(F)cc4)C[C@@]32C)c(C(F)(F)F)n1`
8.57

Next up: `C[C@]12Cc3cnn(-c4ccc(F)cc4)c3C=C1CC[C@@H]2CN(CC1CC1)S(=O)(=O)c1ccccc1F`
9.22

Next up: `C[C@]12Cc3cnn(-c4ccc(F)cc4)c3C=C1CC[C@@H]2CN(CCO)S(=O)(=O)c1cccc(Cl)c1Cl`
8.60

Proceed to the following item.
Report pKi for C[C@]12Cc3cnn(-c4ccc(F)cc4)c3C=C1CC[C@@H]2CN(CC(O)C(F)(F)F)S(=O)(=O)Cc1ccccc1C(N)=O (some centres unmarked) please.
8.66

Every entry's value here was drawn from patent US8299048B2.
